- Target under test: human CD3 on cells (human PBMC; Jurkat TCR/CD3 NFAT reporter cells) (human, UniProt P07766 23-207; P04234 22-171; P09693 23-182)
- Sequence (P07766 23-207, chain 1 of 3): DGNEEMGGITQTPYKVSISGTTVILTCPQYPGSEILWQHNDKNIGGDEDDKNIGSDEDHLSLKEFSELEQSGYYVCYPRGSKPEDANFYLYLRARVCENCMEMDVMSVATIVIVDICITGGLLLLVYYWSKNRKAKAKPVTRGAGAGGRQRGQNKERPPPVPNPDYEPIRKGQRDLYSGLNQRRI
- Sequence (P04234 22-171, chain 2 of 3): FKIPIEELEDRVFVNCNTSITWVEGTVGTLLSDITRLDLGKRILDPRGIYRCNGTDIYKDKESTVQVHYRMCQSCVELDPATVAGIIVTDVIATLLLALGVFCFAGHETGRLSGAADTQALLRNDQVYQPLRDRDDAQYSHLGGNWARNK
- Sequence (P09693 23-182, chain 3 of 3): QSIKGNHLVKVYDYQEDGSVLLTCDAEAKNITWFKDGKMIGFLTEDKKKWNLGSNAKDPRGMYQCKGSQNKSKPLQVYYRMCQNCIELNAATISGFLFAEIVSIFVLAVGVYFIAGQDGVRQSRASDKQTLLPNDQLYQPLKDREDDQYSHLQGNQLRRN
- Test name: cell-based or functional assay
CD3-NFAT Activity by CD3 mAb overview

Prompt line: # input binder: Hu155A9B1-2 (antibody, V domains shown, humanized mAb) VH: EVQLQESGPGLVKPSETLSLTCTVSGGSISSYNVHWVRQPPGKGLEWIGRVRYNGDTSYNSALKSRVTISRDTSKNQFSLKLSSVTAADTAVYYCARGPYGGSSEPLFDYWGQGTMVTVSS VL: DIQMTQSPSSLSASVGDRVTITCKASQNINKYLNWYQQKPGKAPRLLIYTTNNLQTGVPSRFSGSGSGTDFTLTISSLQPEDFATYYCLQHNSGYTFGQGTKLEIK ; wanted: its CD3-NFAT Activity by CD3 mAb
Response line: ≤ 50 % SP34

Continuing:
Prompt line: # input binder: Hu153A6B1-9 (antibody, V domains shown, humanized mAb) VH: EVQLQESGPGLVKPSETLSLTCTVSGGSISSYNIHWVRQPPGKGLEWMGRIRYNGDTSYNSALKSRLTISRDTSKNQFSLKLSSVTAADTAVYYCARGPYGGSREPLFDYWGQGTMVTVSS VL: DIQMTQSPSSLSASVGDRVTITCKTSQNINKYLNWFQQKPGKAPKLLIYTTNNLQTGIPSRFSGSGSGTDFTLTISSLQPEDFATYYCLQHGSGYTFGQGTKLEIK ; wanted: its CD3-NFAT Activity by CD3 mAb
Response line: > 50 % SP34

Prompt line: # input binder: Hu153A6B1-18 (antibody, V domains shown, humanized mAb) VH: EVQLQESGPGLVKPSETLSLTCTVSGFSLTSYNIHWVRQPPGKGLEWMGRIRYNGDTSYNSALKSRLTISRDTSKNQVSLKLSSVTAADTAVYYCTRGPYGGSREPLFDYWGQGTMVTVSS VL: DIQMTQSPSSLSASVGDRVTITCKTSQNINKYLNWFQQKPGKAPKLLIYTTNNLQTGIPSRFSGSGSGTDFTLTISSLQPEDFATYFCLQHGSGYTFGQGTKLEIK ; wanted: its CD3-NFAT Activity by CD3 mAb
Response line: > 50 % SP34
